Task for the reader: assign each of the following compounds its reported IC50.
- assay info: Inhibition of yeast alpha-glucosidase using 4-nitrophenyl-alpha-D-glucopyranoside as substrate preincubated for 15 mins followed by substrate addition measured after 20 mins
- Set-up: species or system Saccharomyces cerevisiae

Look up and report measured IC50 for this entry: C[C@H]1[C@H](C)CC[C@]2(C(=O)O[C@@H]3O[C@H](CO[C@@H]4O[C@H](CO)[C@@H](O[C@@H]5O[C@@H](C)[C@H](O)[C@@H](O)[C@H]5O)[C@H](O)[C@H]4O)[C@@H](O)[C@H](O)[C@H]3O)CC[C@]3(C)C(=CC[C@@H]4[C@@]5(C)C[C@@H](O)[C@H](O)[C@@](C)(CO)[C@@H]5CC[C@]43C)[C@H]12
> 200 µM

Please list IC50 recorded for the compound CC1(C)[C@@H](O)CC[C@]2(C)[C@H]3C(=O)C=C4[C@@H]5C[C@@](C)(C(=O)O)CC[C@]5(C)CC[C@@]4(C)[C@]3(C)CC[C@@H]12
> 200 µM

Specify reported IC50 for the compound shown: CC1(C)[C@@H](O[C@H]2O[C@H](C(=O)O)[C@@H](O)[C@H](O)[C@H]2O[C@@H]2O[C@H](C(=O)O)[C@@H](O)[C@H](O)[C@H]2O)CC[C@]2(C)[C@H]3C(=O)C=C4[C@@H]5C[C@@](C)(C(=O)O)CC[C@]5(C)CC[C@@]4(C)[C@]3(C)CC[C@@H]12
> 200 µM
